# Target desc: Torsin-1A (Homo sapiens) (UniProt O14656)
# Sequence (O14656 whole entry, looked up): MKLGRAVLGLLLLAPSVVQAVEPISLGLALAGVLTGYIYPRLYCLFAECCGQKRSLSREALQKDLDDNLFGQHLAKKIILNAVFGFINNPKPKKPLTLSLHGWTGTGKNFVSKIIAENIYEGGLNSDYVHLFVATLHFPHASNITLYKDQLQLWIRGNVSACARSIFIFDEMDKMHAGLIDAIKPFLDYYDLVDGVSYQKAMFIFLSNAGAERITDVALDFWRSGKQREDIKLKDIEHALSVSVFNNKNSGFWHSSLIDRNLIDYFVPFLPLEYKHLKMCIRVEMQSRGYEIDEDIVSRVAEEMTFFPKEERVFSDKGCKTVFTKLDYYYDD
# Experimental protocol: torsin A binders from cell lysate, primary screen, small-molecule microarray, wild-type, 635/667 nm (AID 1149)
# Condition parameters: COS7 hTOR1A-WT lysate, 635 nm fluorescence, higher = more signal
composite z-score reference
// print number alone

Recorded composite z-score, per entry:
COC(=O)C(CC#Cc1ccc2c(c1)[C@]1(C(=O)N2)[C@H](C(=O)Nc2nc3ccccc3s2)[C@H]2C(=O)O[C@H](c3ccccc3)[C@H](c3ccccc3)N2[C@@H]1c1ccc(OCCO)cc1)C(=O)OC; 1.65
CCOC(=O)C1=CCN(S(=O)(=O)c2ccc(C)cc2)C1c1ccccc1 (configuration not stated); 0.355
CC(C)C[C@@H]1NC(=O)[C@@]23C(=O)N[C@@H](Cc4ccccc4)C2[C@H](C)[C@@]2(C)O[C@H]2C3/C=C/C/C=C\CNC(=O)[C@@H](C)NC1=O (some centres not stated); 0.056
CN1C(=O)C2C=CC(C(O)c3ccc(F)cc3)N(NC(=O)OC(C)(C)C)C2C1=O (configuration not stated); 0.0284
CC(C)(C)OC(=O)CC[C@]12N=C(c3ccc(OCCCO)cc3)O[C@H]1c1ccccc1N(Cc1ccccc1)C2=O; 0.553

Request: Indicate the recorded composite z-score value for this molecule: [N-]=[N+]=NCc1ccccc1[C@@H]1OC(c2ccc(OCCCO)cc2)=N[C@]1(Cc1ccccc1)C(=O)NCCN1CCOCC1
Result: 0.0739

Request: Determine its reported composite z-score: COc1cc2c(cc1O)C(c1cccs1)N(Cc1sc3ccccc3c1Cl)CC2 (configuration not stated)
Result: 1.43

====

# Target desc: Calmodulin-1 (Homo sapiens) (UniProt P0DP23)
# Experimental protocol: calcium-bound CALM1 binders on microarrays, profiling panel, artefact control for SMM control-protein annotation, biochemical, small-molecule microarray, Cy5-labelled CALM1, plus calcium (AID 1112);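 further: score merges spot fluorescence with signal to noise from triplicate slides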
# Condition parameters: Cy5-CALM1 binding fluorescence, higher = more signal
Reported composite z-score values for the following molecules.
# respond with the number and nothing more

COCC(=C=CC[C@@H](O)c1ccc(OCCO)cc1)CCO; -0.102
CCCCC(=O)N(CCN1CCOCC1)[C@@H]1CC(C(=O)NCCO)=C[C@H](Oc2c(I)cc(CO)cc2OC)[C@H]1O; -0.598
CCCCCCCCCCC(O)C1C=CC2C(=O)N(c3ccccc3)C(=O)C2N1Nc1ccccc1F (stereo unspecified); 1.07

Request: GET composite z-score | system: Calmodulin-1 (Homo sapiens) (UniProt P0DP23) | item: C=C(COC)/C(=C/C[C@@H](OC(C)=O)c1ccc(CO)o1)c1cc(C(=O)OC)ccc1OC
Result: -0.9

Request: Give composite z-score only, for COCCOC(=O)N1C(=O)[C@@]2(c3cc(C#CCC(C(=O)OC)C(=O)OC)ccc31)[C@H](c1ccc(OCCO)cc1)N1[C@H](c3ccccc3)[C@H](c3ccccc3)OC(=O)[C@H]1[C@@H]2C(=O)Nc1nc2ccccc2s1 , using Calmodulin-1 (Homo sapiens) (UniProt P0DP23) data.
Result: -0.0309

Request: Tell me its composite z-score on Calmodulin-1 (Homo sapiens) (UniProt P0DP23): CO[C@H]1O[C@H](CO)[C@@H](OC(=O)CCc2ccccc2)[C@H](OC(=O)c2cc3ccccc3[nH]2)[C@H]1OC(=O)c1cc2ccccc2[nH]1
Result: 0.193

Request: Name the recorded composite z-score of CN(C)C(=O)[C@@]1(Cc2ccccc2)COC(c2ccc(OCCCO)cc2)=N1 , assay system Calmodulin-1 (Homo sapiens) (UniProt P0DP23).
Result: 0.369

Request: Give composite z-score for C=C(COC)/C(=C/C[C@@H](OC(=O)c1ccncc1)c1ccccc1OCCO)c1cc(C(=O)OC)ccc1OC tested on Calmodulin-1 (Homo sapiens) (UniProt P0DP23).
Result: -0.66

Request: Determine reported composite z-score for CC(C)C[C@@H]1NC(=O)[C@@H]2C[C@H](C(=O)NCCCCCC[N+](C)(C)C)[C@H](c3cccc(OCCO)c3)N2C1=O ; test system: Calmodulin-1 (Homo sapiens) (UniProt P0DP23).
Result: -0.744

Request: Jot down composite z-score (Calmodulin-1 (Homo sapiens) (UniProt P0DP23)) of COc1cccc(/C=C(\C#N)C(=O)Nc2c(C)n(C)n(-c3ccccc3)c2=O)c1 .
Result: 0.0209

Request: Fill in: composite z-score on Calmodulin-1 (Homo sapiens) (UniProt P0DP23), entry COCC(=C=CC[C@@H](O)c1cccc(OCCO)c1)CCO
Result: 0.281

Values compiled from PubChem BioAssay.
